The reported numbers originate from patent US20230071371A1.

Biological target: T1, GPR10 (UniProt P49683 1-370, limits assumed)
T1 sequence (looked up): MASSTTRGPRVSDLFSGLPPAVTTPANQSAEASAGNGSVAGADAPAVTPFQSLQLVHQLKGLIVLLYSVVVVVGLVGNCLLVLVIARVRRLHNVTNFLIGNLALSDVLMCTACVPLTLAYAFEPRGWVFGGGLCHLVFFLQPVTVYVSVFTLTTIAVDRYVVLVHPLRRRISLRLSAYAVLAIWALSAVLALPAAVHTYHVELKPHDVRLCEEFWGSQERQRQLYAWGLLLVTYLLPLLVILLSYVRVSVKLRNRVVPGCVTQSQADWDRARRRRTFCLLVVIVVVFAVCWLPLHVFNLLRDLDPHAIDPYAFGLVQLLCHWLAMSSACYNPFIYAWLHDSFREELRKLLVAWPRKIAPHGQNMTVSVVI
Assay: cell-based or functional assay
Bridges are numbered along the chain shown (N, C = ends). Where no end group is shown, it is not given here. L3 = not defined here; L5 = not defined here
# Lookup of reported GPR10 EC50 keyed by entry
Write the answer as a number in nM, unit excluded.

Entry under review: SRAHQHSMETRTPDINPAWYTGRGIRPVGRF-NH2 [SEQ ID NO 107] . Reported GPR10 EC50? 12

Now this one: SRAHQHSMETRTCDINPAWCTGRGIRPVGRF-NH2 (linker 13-20 via L3; reading uncertain) [Conjugate 239] 17

Now this one: SRAHQHSMETRTCDINPAWCTGRGIRPVGRF-NH2 (linker 13-20 via L5; reading uncertain) [Conjugate 241] 1500

Now this one: TPDICPAWYTGCGIRPVGRF-NH2 (cysteine pairing not given here) [SEQ ID NO 83] 44
